Entries and their EC50
# protocol_summary: Relative potency was evaluated for its ability to mobilize intracellular calcium in MDA MB231 cells.
# Format: functional, cell-based
# test_conditions: Homo sapiens, MDA-MB-231

Previously resolved entries follow.
# compound, observed_measurement
data = [
    ("CCCCCC/C=C\\CCCCCCCC(=O)Nc1cccc(OP(=O)(O)O)c1", "460 nM"),
    ("CCCCCCCC/C=C\\CCCCCCCC(=O)OCC(O)COP(=O)(O)O (single isomer, unassigned) [LYSOPHOSPHATIDIC ACID]", "5 nM"),
    ("CCCCCC/C=C\\CCCCCCCC(=O)Nc1ccc(OP(=O)(O)O)cc1", "1830 nM"),
]

Query block: Please report the recorded EC50 for `CCCCCCCCCCCCCCCC(=O)Oc1cccc(OP(=O)(O)O)c1` .
Result block: 310 nM

Query block: Please report the recorded EC50 for `CCCCCCCCCCCCCCCC(=O)Nc1cccc(OP(=O)(O)O)c1` .
Result block: 460 nM
